These data points were gathered from ChEMBL document CHEMBL1130174.

Field: Cmax. Provide a value for each of the molecules that follow.
- Run description: Maximum drug concentration is determined after oral dosing in rats.
- Format: ADME, organism-based
- Parameters: route oral
- Experimental conditions: rat, in vivo
Write it as a number; the unit ng/mL goes unstated.

Q: Given CCCN(CCN1C[C@H](c2ccc3c(c2)OCO3)[C@@H](C(=O)O)[C@@H]1c1ccc(OC)c(F)c1)S(=O)(=O)CCCC(F)(F)F (stereo in doubt; 15e) , state its recorded Cmax.
Result: 1200

Q: What value of Cmax has been reported for the following molecule? CCCCCS(=O)(=O)N(CCC)CCN1C[C@H](c2ccc3c(c2)OCO3)[C@@H](C(=O)O)[C@@H]1c1ccc(OC)c(F)c1 (stereo in doubt; 15b)
Result: 2400

Q: Reported Cmax for CCCN(CCN1C[C@H](c2ccc3c(c2)OCO3)[C@@H](C(=O)O)[C@@H]1c1ccc(OC)c(F)c1)S(=O)(=O)CCCCl (stereo in doubt; 15d) : what is it?
Result: 400

Q: What does the record list as Cmax for CCCCCCS(=O)(=O)N(CCC)CCN1C[C@H](c2ccc3c(c2)OCO3)[C@@H](C(=O)O)[C@@H]1c1ccc(OC)c(F)c1 (stereo in doubt; 15c) ?
Result: 700

Q: # get_value(readout='Cmax', item= CCCCS(=O)(=O)N(CCC)CCN1C[C@H](c2ccc3c(c2)OCO3)[C@@H](C(=O)O)[C@@H]1c1ccc(OC)c(F)c1 (stereo in doubt; 15a) )
Result: 1100

---

- Run description: Half-life is obtained after oral dosing of rats.
- Type: ADME, organism-based
- Experimental conditions: rat, in vivo
Each record is given class 1 if its reported half-life is strictly below 8 h. Records at or above 8 h are given class 0.

Q: Would you kindly verify if half-life of CCCCS(=O)(=O)N(CCC)CCN1C[C@H](c2ccc3c(c2)OCO3)[C@@H](C(=O)O)[C@@H]1c1ccc(OC)c(F)c1 (stereo in doubt; 15a) is strictly less than 8 h?
Result: class 1

Q: In plain terms, does CCCN(CCN1C[C@H](c2ccc3c(c2)OCO3)[C@@H](C(=O)O)[C@@H]1c1ccc(OC)c(F)c1)S(=O)(=O)CCCCl (stereo in doubt; 15d) come in under 8 h for half-life?
Result: class 0

Q: Input CCCCCCS(=O)(=O)N(CCC)CCN1C[C@H](c2ccc3c(c2)OCO3)[C@@H](C(=O)O)[C@@H]1c1ccc(OC)c(F)c1 (stereo in doubt; 15c) ; condition: half-life strictly below 8 h. Does it hold?
Result: class 1

Q: Strictly below 8 h in half-life? CCCN(CCN1C[C@H](c2ccc3c(c2)OCO3)[C@@H](C(=O)O)[C@@H]1c1ccc(OC)c(F)c1)S(=O)(=O)CCCC(F)(F)F (stereo in doubt; 15e)
Result: class 0

---

- Run description: Ratio of endothelin A receptor and endothelin B receptor.
Endpoint: Ratio
API doc: respond with a numeric literal and nothing else, no unit.

Q: Query: Ratio; subject: `CCCN(CCN1C[C@H](c2ccc3c(c2)OCO3)[C@@H](C(=O)O)[C@@H]1c1ccc(OC)cc1)S(=O)(=O)c1ccc(C)cc1`
Result: 10

Q: Please give the measured Ratio for this compound: `CCCN(CCN1C[C@H](c2ccc3c(c2)OCO3)[C@@H](C(=O)O)[C@@H]1c1ccc(OC)cc1)S(=O)(=O)c1ccc(OC)cc1`
Result: 120

Q: Ratio lookup needed for `CCCOc1ccc2c(c1)[C@@H](c1ccc(OC)cc1OCCO)[C@H](C(=O)O)[C@H]2c1ccc2c(c1)OCO2` , thanks.
Result: 100

Q: Recorded Ratio for `CCCOc1ccc2c(c1)[C@@H](c1ccc(OC)cc1OCC(=O)O)[C@H](C(=O)O)[C@H]2c1ccc2c(c1)OCO2` , please?
Result: 90
